target: T1, Peptide A (human PAR-2), C-terminal biotinylated (Human, C-terminal biotin via G4S linker); test: peptide ELISA titration
T1 construct: also called Peptide A C-Term
Give measured EC50 for each item. Keep answers brief.
Give bare numbers, in nM.

binder | units | EC50
H4H585P (antibody, human IgG4, V domains shown, also called H1H585P variable regions) VH: QVQLVESGGGVVQPGRSLRLSCVASGFTFSRYGMHWVRQAPGKGLEWLIVISYDGINKYYADSVKGRFTISRDNSKNTVYLQMNSLRAEDTAVYYCAKGDFWSGYFDYWGQGTLVTVSS VL: DIVMTQTPLSSPVTLGQPASISCRSSQSLVHSDGNTYLSWLHQRPGQPPRLLIYKISNRFSGVPDRFSGSGAGTDFTLQISRVEAEDVGIYYCMQGTQFPTFGGGTKVEIK | nM | 0.021

**Q:** Read the entry H4H583P (antibody, human IgG4, V domains shown, also called H1H583P variable regions) VH: QVQLVESGGGVVQPGMSLRLSCTASGFTFRRYGMHWVRQAPGKGLEWVAVIWYDGSNKYYADSVKGRFTITRDNSKNTLYLQMNSLRAEDTAIYFCASEITIGDWFDPRGQGTLVTVSS VL: AIQMTQSPSSLSASVGDRVTITCRASQGIRNDLGWFQQKPGKVPKLLIYAASTLHSGVPSRFSGSGFGTDFTLTISSLQPEDFATYYCLQDFNYPLTFGGGTKVEIK and write its reported EC50.
**A:** 0.018

All values here come from patent US20110059095A1.
